tested on: TK-10 renal; assay: NCI tumour cell line growth inhibition, 48 h
This listing pairs molecules with measured TGI.

Please review the entries below; each comes with its answer.
CCCOc1ccc(/C=C\c2cc(OC)c(OC)c(OC)c2)cc1
> 100 µM
Cc1sc2ncnc(Sc3nc4ccccc4[nH]3)c2c1C
62.4 µM
COc1nccc(-c2c(-c3ccc(F)cc3)ncn2C2CCC(O)CC2)n1 (stereo unspecified)
> 100 µM

## Task Lookup: TGI / TK-10 renal / N#CCCc1nc2ccc(Br)cc2c(=O)n1-c1ccc(O)c([N+](=O)[O-])c1
## Result > 100 µM

## Task Lookup: TGI / TK-10 renal / O=C1/C(=C/c2cccc([N+](=O)[O-])c2)CCCc2ccccc21
## Result 30.8 µM

## Task Lookup: TGI / TK-10 renal / FC(F)(F)c1ccc2c(c1)N(CCCN1CCN(C3CC3)CC1)c1ccccc1S2
## Result 27.2 µM

## Task Lookup: TGI / TK-10 renal / CCCCCCN(C(=O)Oc1ccccc1)C(C#N)c1ccccc1 (stereo unspecified)
## Result > 100 µM

## Task Lookup: TGI / TK-10 renal / N#C/C(=C\c1ccc(Cl)cc1)c1nc2ccccc2c(=O)[nH]1
## Result > 100 µM

## Task Lookup: TGI / TK-10 renal / COc1ccc2c(c1)c(Cc1c(C)n(C)c3ccc(OC)cc13)c(C)n2C
## Result > 100 µM

## Task Lookup: TGI / TK-10 renal / CN(C)c1ccc(C2CC(=O)CC(c3ccc(N(C)C)cc3)C23C(=O)NC(=O)NC3=O)cc1 (stereo unspecified)
## Result > 25 µM

## Task Lookup: TGI / TK-10 renal / C/C(=N\NC(=S)N(C)C)c1ncc[nH]1
## Result > 100 µM
